Each recorded value in this set is attributed to the supplement of paper PMC9170038.

Test system: MS2 coat protein
experiment: apparent KD of MS2 coat protein; designed switch direction (-1 OFF switch, 1 ON switch): 1; higher = weaker reporter binding
particulars: Eterna round: R95; input ligand: microRNA oligo, concentration not stated
measured-parameter: apparent KD of MS2 coat protein (nM)
Answer in nM, number only, no unit symbol.

Some solved entries appear below for comparison.
INSERT INTO assay_data (seq, measured_parameter, value_units, result_number) VALUES
  ('UCAAGCGAAAGGCUCGUCUUAUGCAAGAAACAUGAGGAUCACCCAUGUGAGGGACGAUUGAGUUAGAUGGAAUGGAA [JR_SHM208A_Sub031] (puzzle: Sensor for hsa-mir-208a)', 'apparent KD of MS2 coat protein', 'nM', 66.6),
  ('AGGGAGGAAGCUGAGGAUAUCGUAAGGAGGACAUGAGGAUCACCCAUGUGUGUAGAAUUGGAGGACGAGAAGGCAGAGGAGUGGG [JR_SS2_Sub053] (puzzle: Same State 2)', 'apparent KD of MS2 coat protein', 'nM', 21.3),
  ('AUUUAACAAGCUUUUUGCUCGUCUUAUAAACAUGAGGAUCACCCAUGUAAUAGCGUGAGAGUAAUUUAUUAAAUAAU [JMF 92] (puzzle: Sensor for hsa-mir-208a)', 'apparent KD of MS2 coat protein', 'nM', 41);

Any idea what its apparent KD of MS2 coat protein is? The sequence is AUUUAACAAGCUUUUUGCUCGUCUUAUAAACAUGAGGAUCACCCAUGUAAUAGCGUGAGAGUAAUUAAUUAAAUAAU [JMF 90] (puzzle: Sensor for hsa-mir-208a) 46.9

Any idea what its apparent KD of MS2 coat protein is? The sequence is GUUAAACAUGAGGAUCACCCAUGUAAUAAUAUGGGAGGAUAUCAGAAAUUAUUUAUUAAAUGAGAAGGCCUAAUUG [Mat - Same State 1 - Mod of Eli - D81] (puzzle: Same State 1) 321

Any idea what its apparent KD of MS2 coat protein is? The sequence is AAUAAACAUGAGGAUCACCCAUGUAAUAUAAAUGGAGGAUAUGCAAUUAUUAAUUAUUAAGUAGAAGGUCGAAUAA [Lollin - Epsilon 1] (puzzle: Same State 1) 55.7

Any idea what its apparent KD of MS2 coat protein is? The sequence is AAUAAGUUCAGCUCGUCUUGCGCCGACUGACAUGAGGAUCACCCAUGUGGAUUCCAAGGAAUCCAUUGGCGUGUUUC [Ororer] (puzzle: Sensor for hsa-mir-208a) 54.3

Any idea what its apparent KD of MS2 coat protein is? The sequence is UUGGUGUAGAUACAGGAUAUGUUGCUCGUAACAUGAGGAUCACCCAUGUAUCUAUGAGAUUAAAUGCAGAAGGGUGCACACCACU [salish99_ss2_r3_087] (puzzle: Same State 2) 341

Any idea what its apparent KD of MS2 coat protein is? The sequence is CUUGGGUGGCUGGAGGAUAUUCGAGUGGUAACAUGAGGAUCACCCAUGUGUCGCGCGGUACACGAGGAGAAGGCUGGCGGCCGGC (puzzle: Same State 2) 84.8

Any idea what its apparent KD of MS2 coat protein is? The sequence is GGUUUAGUCAGGUACAGUUGCACCUGAAAACAUGAGGAUCACCCAUGUUUGGGACAAGCUUUGCUCCUCGUCUUGCC [Ralausen] (puzzle: Sensor for hsa-mir-208a) 77.6

Any idea what its apparent KD of MS2 coat protein is? The sequence is AGUCCAGCCAAAGCUGGACAAAAGCAUGUACAUGAGGAUCACCCAUGUUCAUGUACAAGCUUUUUGCAAGUCAAAAU [Mat - hsa-mir-208a - Mod of JL - 78] (puzzle: Sensor for hsa-mir-208a) 17.1

Any idea what its apparent KD of MS2 coat protein is? The sequence is AGAGAAGAAGCUGAGGAUAUCGUAAGGAGGACAUGAGGAUCACCCAUGUGUGUGGAAUUGGAGGACGAGAAGGCAGAGGAGUGGG [JR_SS2_Sub056] (puzzle: Same State 2) 28.3

Any idea what its apparent KD of MS2 coat protein is? The sequence is UGGUAACAUGAGGAUCACCCAUGUCAAGAGAAUCAAGGAUAUGGUAAGUAAUAAGAGAAUCUAGAAGGUGAAGUUG [Altered State 1-25 - Jieux - Same State 1] (puzzle: Same State 1) 73.3

Any idea what its apparent KD of MS2 coat protein is? The sequence is CAGCACUAUCGAGAGGAUAUGCGGUGAUGGACAUGAGGAUCACCCAUGUUAGCGAUAGCAUCACGGCAGAAGGCUCUGCUGCUGC [Soteed Omei mod 37] (puzzle: Same State 2) 17.6

Any idea what its apparent KD of MS2 coat protein is? The sequence is GUAAUACAUGAGGAUCACCCAUGUCAAUGUAGUCGAGGAUAUGGGUAGCUAUGAGGCGUUCUAGAAGGCGACGAGC [Same State 1 - Mod of Vinnie Teenbexe v.3] (puzzle: Same State 1) 151

Any idea what its apparent KD of MS2 coat protein is? The sequence is CUCAAAACAAGUUGCAGUGUUCGUCUUUAACAUGAGGAUCACCCAUGUAAUAGCCCAGUAGAAGCGCUCGGGCCACC [Ceedbeen] (puzzle: Sensor for hsa-mir-208a) 26.4

Any idea what its apparent KD of MS2 coat protein is? The sequence is CACAAUCUAUCUGAGGAUAUCAUGAAAAAAACAUGAGGAUCACCCAUGUGCAGGAAAACUGCAUAUGAGAAGGCAGAUAGAUUGC [salish99_SS2_r3_013] (puzzle: Same State 2) 460

Any idea what its apparent KD of MS2 coat protein is? The sequence is AGUCCAGCCUGAGCUGGACAAAAGCAUGUACAUGAGGAUCACCCAUGUUCAUGUACAAGCUUUUUGCUCGUCUUGAA [salish99_208a_r3_095x] (puzzle: Sensor for hsa-mir-208a) 13.5

Any idea what its apparent KD of MS2 coat protein is? The sequence is AAAGCACAUGAGGAUCACCCAUGUGGAAAUAACACAGGAUAUCCGGCCGAAAAUACGGUGGGAGAAGGGUGACCUA [Inxetemama] (puzzle: Same State 1) 60.4

Any idea what its apparent KD of MS2 coat protein is? The sequence is UCUUGGUUUUUGCUCGUUUUUUGUGUUGAACAUGAGGAUCACCCAUGUAUUGUACGGUCCAGUUUGGUAAUGGUCCG [JMF 35] (puzzle: Sensor for hsa-mir-208a) 14.9

----------
Listed next: entries and their corresponding apparent KD of MS2 coat protein.
Test system: MS2 coat protein
experiment: apparent KD of MS2 coat protein; designed switch direction (-1 OFF switch, 1 ON switch): -1; higher = weaker reporter binding
particulars: Eterna round: R95; input ligand: none
Answer in nM, number only, no unit symbol.

Any idea what its apparent KD of MS2 coat protein is? The sequence is GAAAAGGUAGGAUAUACGAAAAAAAAGGGUAGAAAAGAAACACAUGAGGAUCACCCAUGUAGAAGGACCAAAAG [salish99_ex2_r3_016] (puzzle: Exclusion 2) 21.5

Any idea what its apparent KD of MS2 coat protein is? The sequence is AGUACUAACACGAAAGUGUUAGUACUAUAAGCUUGUGUAACAUGAGGAUCACCCAUGUCCUCAUAAGCUCGUCUUAU [Mat - Sensor v3 - Turn-off var 2 - D100] (puzzle: Sensor v3, turn-off variant 2) 61.2

Any idea what its apparent KD of MS2 coat protein is? The sequence is AGAAAUGUCCAUGGCCGCAAGCUUUUUACUUGUCUUACCACAUGAGGAUCACCCAUGUGACAUGGACUCCUUAUGAU [Sensor v3, turn-off variant 2 (MOD of Oranla v.3)] (puzzle: Sensor v3, turn-off variant 2) 14.8

----------
Test system: MS2 coat protein
experiment: apparent KD of MS2 coat protein; higher = weaker reporter binding
particulars: Eterna round: R107; input ligand: theophylline 20 uM
measured-parameter: apparent KD of MS2 coat protein (µM)
Answer in µM, number only, no unit symbol.

Some solved entries appear below for comparison.
INSERT INTO measurements (seq, value_units, result_number) VALUES
  ('UUAAGAGGAUAUCAAAUUUGAUUUUGUGAUACCAGAAUAAUUUUAUUCCCUUGGCAGCAUGACAUGAGGAUCACCCAUGUGUCUU [SSTheo A #1]', 'µM', 0.0443),
  ('ACGAACUGUAGUGAUACCAGACGUACAUGAGGAUCACCCAUGUUGUAAACAUGGUUAAUAGUCCCUUGGCAGCACAGUUAGUUCG [JR_ExcTheophyB_Sub002]', 'µM', 0.612);

Please find the next sequence below.
Any idea what its apparent KD of MS2 coat protein is? The sequence is AACAUGAGGAUCACCCAUGUCUGAACUGAAGGAGCGCUAAAUAAGGCAGGUAGGUCGCGGAAUUUUGUGUAUAUAUAUAUAUGGG [9.G] 0.0342
